Listed here are molecules together with their documented GI50.
test system: OVCAR-3 ovarian; experiment: NCI tumour cell line growth inhibition, 48 h
readout-type: GI50

| molecule | tested-system | readout-type | observed-result |
| --- | --- | --- | --- |
| CCCCSc1nc(Nc2ccc(/C(C)=N/NC(N)=S)cc2)c(C#N)c(-c2ccc(F)cc2)n1 | OVCAR-3 ovarian | GI50 | 2.57 µM |
| CS(=O)(=O)Nc1cncc(-c2ccc3ncnc(NCc4ccccc4)c3c2)c1 | OVCAR-3 ovarian | GI50 | 5.93 µM |
| COc1ccc2ccccc2c1/C=C1\SC(=Nc2ccc(O)cc2)NC1=O | OVCAR-3 ovarian | GI50 | 0.425 µM |
| COc1ccccc1[C@H]1C(C(=O)c2ccc(O)cc2)C2(N[C@@H]1c1ccccc1)C(=O)Nc1ccc(Br)cc12 (stereo not given in full) | OVCAR-3 ovarian | GI50 | 5.35 µM |
| C/C(=N\N=C1/C(=O)Nc2ccc(Cl)cc21)c1ccc2c(c1)Nc1ccccc1S2 | OVCAR-3 ovarian | GI50 | 10.2 µM |
